# testTarget: recombinant human FAK1 (Homo sapiens, UniProt Q05397)
# Construct: fused on or other part: N-terminal 6xHis tag
# Sequence (Q05397 422-680 limits assumed): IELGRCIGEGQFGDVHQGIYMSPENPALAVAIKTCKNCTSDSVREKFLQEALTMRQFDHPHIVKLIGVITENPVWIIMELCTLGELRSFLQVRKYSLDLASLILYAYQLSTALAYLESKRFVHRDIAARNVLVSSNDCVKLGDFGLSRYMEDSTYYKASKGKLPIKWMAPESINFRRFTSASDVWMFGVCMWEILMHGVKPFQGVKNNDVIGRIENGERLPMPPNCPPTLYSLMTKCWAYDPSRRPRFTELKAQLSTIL
# assayMethodText: FAK1 HTRF assay
Consider the following compounds; for each one, report its IC50.

Consider the worked cases shown below.
> print(dat)
                                   compound                                testtarget  reportedendpoint     result
1  CC(=O)Nc1cccc(Oc2ncc3ccn(Cc4cccnc4N(C)S(C)(=O)=O)c3n2)c1  recombinant human FAK1 (Homo sapiens, UniProt Q05397)              IC50  > 1000 nM
2     CSc1cccc(Nc2ncc3cnn(Cc4cccnc4)c3n2)c1  recombinant human FAK1 (Homo sapiens, UniProt Q05397)              IC50  > 1000 nM
3  CN(c1ccccc1Cn1ccc2cnc(Nc3ccc(N4CCCC(O)C4)cc3)nc21)S(C)(=O)=O (stereo not drawn)  recombinant human FAK1 (Homo sapiens, UniProt Q05397)              IC50    < 20 nM

Each compound below has a recorded value; state its IC50.
1. O=S(=O)(c1cccc2cccnc12)n1ccc2cnc(Nc3ccc(N4CCNCC4)c(F)c3)cc21
2. COc1cc(N2CCC(N(C)C)CC2)ccc1Nc1ncc2c(n1)N(S(=O)(=O)c1cccc3cccnc13)CC2(C)C
3. COc1cc(Nc2ncc3ccn(Cc4cc(F)ccc4N(C)S(C)(=O)=O)c3n2)ccc1N1CCNCC1

["< 20 nM", "< 20 nM", "< 20 nM"]
